The entries below are paired with their reported log10 GI50.
biological target: FGFR3-BAIAP2L1 Ba/F3 cells (Homo sapiens, UniProt P22607); construct: Ba/F3 FGFR3; FGFR3--BAIAP2L1 fusion; Advanced Cellular Dynamics, (Seattle, WA); fused on or other part: Q9UHR4 (BAR/IMD domain-containing adapter protein 2-like 1); assay: Ba/F3 cell viability assay, FGFR3; format: cell-based; details: FGFR3-BAIAP2L1 fusion Ba/F3, 48 hours, Cell Titer-Glo 2.0; read-out: Ba/F3 Cells FGFR3 (IC50 nM)
Sequence (P22607 whole entry, change not shown, the tested form may be a part): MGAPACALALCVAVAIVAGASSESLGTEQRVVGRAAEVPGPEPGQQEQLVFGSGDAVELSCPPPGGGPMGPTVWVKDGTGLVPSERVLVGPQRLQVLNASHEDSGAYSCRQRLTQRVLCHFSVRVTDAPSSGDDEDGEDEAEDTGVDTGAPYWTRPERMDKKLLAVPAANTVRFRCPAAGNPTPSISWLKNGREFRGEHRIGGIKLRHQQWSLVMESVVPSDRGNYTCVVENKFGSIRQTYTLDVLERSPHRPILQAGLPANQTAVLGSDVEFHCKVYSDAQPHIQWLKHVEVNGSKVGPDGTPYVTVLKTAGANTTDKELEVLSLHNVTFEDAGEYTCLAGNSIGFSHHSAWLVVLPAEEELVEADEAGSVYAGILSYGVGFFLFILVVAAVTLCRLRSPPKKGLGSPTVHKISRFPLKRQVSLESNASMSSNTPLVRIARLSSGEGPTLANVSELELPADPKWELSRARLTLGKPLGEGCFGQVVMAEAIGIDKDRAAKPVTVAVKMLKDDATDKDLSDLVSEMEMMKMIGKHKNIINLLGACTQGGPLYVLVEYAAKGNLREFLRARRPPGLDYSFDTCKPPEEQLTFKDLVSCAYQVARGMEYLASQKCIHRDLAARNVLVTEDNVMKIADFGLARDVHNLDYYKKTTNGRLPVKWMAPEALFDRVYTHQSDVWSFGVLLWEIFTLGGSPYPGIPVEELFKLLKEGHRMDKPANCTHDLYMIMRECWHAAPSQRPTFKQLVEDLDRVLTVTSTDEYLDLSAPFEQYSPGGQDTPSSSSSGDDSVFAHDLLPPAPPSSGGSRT
result-type: log10 GI50 (log10 of the value in nM)

- compound: "C=CC(=O)Nc1ccc2c(c1)c(C)cn2-c1nc(Nc2ccc(N=S(C)(C)=O)c(F)c2)ncc1C#N"
  target-or-test-system: "FGFR3-BAIAP2L1 Ba/F3 cells (Homo sapiens, UniProt P22607)"
  log10 GI50: 1.66
- compound: "Cc1cnc(Nc2ccc(N=S(C)(C)=O)cc2)nc1-c1c[nH]c2ccccc12"
  target-or-test-system: "FGFR3-BAIAP2L1 Ba/F3 cells (Homo sapiens, UniProt P22607)"
  log10 GI50: 1.18
- compound: "C=CC(=O)Nc1ccc2c(-c3nc(Nc4ccc(N=S(C)(C)=O)cc4)ncc3Cl)cn(C)c2c1"
  target-or-test-system: "FGFR3-BAIAP2L1 Ba/F3 cells (Homo sapiens, UniProt P22607)"
  log10 GI50: 1.18
- compound: "Cc1[nH]c2ccccc2c1-c1nc(Nc2ccc(S(C)(=N)=O)cc2)ncc1Cl (centres unmarked)"
  target-or-test-system: "FGFR3-BAIAP2L1 Ba/F3 cells (Homo sapiens, UniProt P22607)"
  log10 GI50: 2.44
- compound: "C=CC(=O)Nc1ccc2c(ccn2-c2nc(Nc3ccc(S(C)(=N)=O)cc3)ncc2Cl)c1 (centres unmarked)"
  target-or-test-system: "FGFR3-BAIAP2L1 Ba/F3 cells (Homo sapiens, UniProt P22607)"
  log10 GI50: 1.53
- compound: "C=CC(=O)Nc1ccc2c(ccn2-c2nc(Nc3ccc(N=S(C)(C)=O)cc3)ncc2Cl)c1"
  target-or-test-system: "FGFR3-BAIAP2L1 Ba/F3 cells (Homo sapiens, UniProt P22607)"
  log10 GI50: 1.45
- compound: "C=CC(=O)Nc1ccc2c(c1)c(C)cn2-c1nc(Nc2ccc(N=S(C)(C)=O)cc2)ncc1Cl"
  target-or-test-system: "FGFR3-BAIAP2L1 Ba/F3 cells (Homo sapiens, UniProt P22607)"
  log10 GI50: 1.18
- compound: "C=CC(=O)Nc1ccc2c(c1)c(C)cn2-c1nc(Nc2ccc(N=S(C)(C)=O)c(F)c2)ncc1Cl"
  target-or-test-system: "FGFR3-BAIAP2L1 Ba/F3 cells (Homo sapiens, UniProt P22607)"
  log10 GI50: 1.00

###

The entries below are paired with their reported Kd.
target: FGFR3 (V555M) (Homo sapiens, UniProt P22607, V555M); construct: made in house; host or cells: E. coli host derived from BL21, infected with T7 phage; assay: Kinase binding assay (Kd), FGFR3 (V555M); conditions: 11-point 3-fold dilution, qPCR readout
Sequence (P22607 23-806 V555M): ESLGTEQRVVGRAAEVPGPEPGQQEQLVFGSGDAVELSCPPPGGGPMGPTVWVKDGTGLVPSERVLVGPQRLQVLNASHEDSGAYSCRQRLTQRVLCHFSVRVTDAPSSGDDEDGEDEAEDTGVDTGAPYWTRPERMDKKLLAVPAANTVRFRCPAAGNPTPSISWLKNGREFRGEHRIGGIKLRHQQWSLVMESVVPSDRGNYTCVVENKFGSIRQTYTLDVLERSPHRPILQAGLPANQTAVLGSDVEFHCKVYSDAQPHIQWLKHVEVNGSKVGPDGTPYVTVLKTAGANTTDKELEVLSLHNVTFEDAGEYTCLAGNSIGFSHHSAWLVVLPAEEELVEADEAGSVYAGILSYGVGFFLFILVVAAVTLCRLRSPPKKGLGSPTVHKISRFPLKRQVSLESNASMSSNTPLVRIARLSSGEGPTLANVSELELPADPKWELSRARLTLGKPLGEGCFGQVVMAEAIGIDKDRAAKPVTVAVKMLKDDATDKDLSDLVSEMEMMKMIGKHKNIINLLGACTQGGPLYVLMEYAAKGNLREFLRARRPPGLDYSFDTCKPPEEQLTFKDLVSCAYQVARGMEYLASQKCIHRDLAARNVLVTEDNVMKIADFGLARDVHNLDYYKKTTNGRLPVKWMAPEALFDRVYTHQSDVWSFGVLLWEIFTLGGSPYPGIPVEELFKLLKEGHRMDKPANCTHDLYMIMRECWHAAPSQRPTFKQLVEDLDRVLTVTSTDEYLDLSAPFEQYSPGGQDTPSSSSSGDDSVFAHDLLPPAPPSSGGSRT

- molecule: "N=S1(=O)CCN(c2ccc(Nc3ncc(Cl)c(-n4ccc5c(N)cccc54)n3)cc2)CC1 [Example 82]"
  Kd / nM: 2
- molecule: "C=CC(=O)Nc1ccc2c(-c3nc(Nc4ccc(S(C)(=N)=O)cc4)ncc3Cl)c[nH]c2c1 (centres unmarked) [Example 89]"
  Kd / nM: 7.5
- molecule: "C=CC(=O)Nc1ccc2c(ccn2-c2nc(Nc3ccc(S(C)(=N)=O)cc3OC)ncc2Cl)c1 (centres unmarked) [Example 71]"
  Kd / nM: 140
- molecule: "COc1cc(N2CCS(=N)(=O)CC2)ccc1Nc1ncc(Cl)c(-n2ccc3ccccc32)n1 [Example 44]"
  Kd / nM: 42
- molecule: "CN1CCS(=O)(=Nc2ccc(Nc3nccc(-n4ccc5ccccc54)n3)cc2)CC1 [Example 16]"
  Kd / nM: 140
- molecule: "C=CC(=O)Nc1ccc2c(cnn2-c2nc(Nc3ccc(N=S(C)(C)=O)cc3)ncc2Cl)c1 [Example 86]"
  Kd / nM: 7.1
- molecule: "C=CC(=O)Nc1ccc2c(c1)c(C)cn2-c1nc(Nc2ccc(N=S(C)(C)=O)cc2OCC)ncc1Cl [Example 65]"
  Kd / nM: 970
- molecule: "CS(C)(=O)=Nc1ccc(Nc2cc(-n3ccc4ccccc43)ncn2)cc1 [Example 15]"
  Kd / nM: 3700

###

target: FGFR1 (Homo sapiens, UniProt P11362); construct: made in house; host or cells: E. coli host derived from BL21, infected with T7 phage; assay: Kinase binding assay (Kd), FGFR1; conditions: 11-point 3-fold dilution, qPCR readout
Sequence (P11362 22-822): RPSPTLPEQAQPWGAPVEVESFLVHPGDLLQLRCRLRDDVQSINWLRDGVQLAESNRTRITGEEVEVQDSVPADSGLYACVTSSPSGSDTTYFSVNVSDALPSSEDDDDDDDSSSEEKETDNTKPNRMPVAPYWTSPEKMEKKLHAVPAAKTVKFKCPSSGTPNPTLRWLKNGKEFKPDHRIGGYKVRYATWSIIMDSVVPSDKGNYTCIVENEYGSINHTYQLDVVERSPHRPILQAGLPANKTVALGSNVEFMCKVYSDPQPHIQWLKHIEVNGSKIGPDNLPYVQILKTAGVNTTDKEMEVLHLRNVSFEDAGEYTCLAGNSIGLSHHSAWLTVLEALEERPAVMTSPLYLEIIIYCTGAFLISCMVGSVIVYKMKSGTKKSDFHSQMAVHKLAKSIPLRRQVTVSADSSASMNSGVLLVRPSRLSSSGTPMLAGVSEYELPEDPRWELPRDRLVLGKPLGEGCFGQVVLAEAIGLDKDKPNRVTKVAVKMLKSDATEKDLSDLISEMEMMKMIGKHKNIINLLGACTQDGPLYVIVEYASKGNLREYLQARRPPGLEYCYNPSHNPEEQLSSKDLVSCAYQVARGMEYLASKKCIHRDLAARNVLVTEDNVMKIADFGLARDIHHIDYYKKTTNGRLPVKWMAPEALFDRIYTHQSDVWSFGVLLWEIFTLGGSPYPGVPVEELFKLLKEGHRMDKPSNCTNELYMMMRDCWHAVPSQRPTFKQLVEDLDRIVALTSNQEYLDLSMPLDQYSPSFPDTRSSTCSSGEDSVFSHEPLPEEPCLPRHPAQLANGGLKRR

- molecule: "CS(C)(=O)=Nc1ccc(Nc2nccc(-c3c[nH]c4ccccc34)n2)cc1"
  target-or-test-system: "FGFR1 (Homo sapiens, UniProt P11362)"
  Kd / nM: 350
- molecule: "Cc1cc(Nc2ncc(C)c(-c3c[nH]c4ccccc34)n2)ccc1N=S(C)(C)=O"
  target-or-test-system: "FGFR1 (Homo sapiens, UniProt P11362)"
  Kd / nM: 4
- molecule: "C=CC(=O)Nc1ccc2c(ccn2-c2nc(Nc3ccc(S(C)(=N)=O)cc3OC)ncc2Cl)c1 (centres unmarked) [Example 71]"
  target-or-test-system: "FGFR1 (Homo sapiens, UniProt P11362)"
  Kd / nM: 6000
- molecule: "COc1ccc(N=S(C)(C)=O)cc1Nc1ncc(Cl)c(-c2c[nH]c3ccccc23)n1"
  target-or-test-system: "FGFR1 (Homo sapiens, UniProt P11362)"
  Kd / nM: 390
- molecule: "COc1cc(S(C)(=N)=O)ccc1Nc1ncc(Cl)c(-n2ccc3ccccc32)n1 (centres unmarked)"
  target-or-test-system: "FGFR1 (Homo sapiens, UniProt P11362)"
  Kd / nM: 9000
- molecule: "COc1cc(N2CCS(=N)(=O)CC2)ccc1Nc1ncc(Cl)c(-c2c[nH]c3ccccc23)n1"
  target-or-test-system: "FGFR1 (Homo sapiens, UniProt P11362)"
  Kd / nM: 72
- molecule: "CS(C)(=O)=Nc1ccc(Nc2ncc(Cl)c(-n3ccc4c(NC(=O)C5CC5)cccc43)n2)cc1"
  target-or-test-system: "FGFR1 (Homo sapiens, UniProt P11362)"
  Kd / nM: 250
- molecule: "C=CC(=O)Nc1ccc2c(c1)c(C)cn2-c1nc(Nc2ccc(N=S(C)(C)=O)c(F)c2)ncc1C"
  target-or-test-system: "FGFR1 (Homo sapiens, UniProt P11362)"
  Kd / nM: 10

###

Target: FGFR2 (Homo sapiens, UniProt P21802)
Construct: made in house; host or cells: E. coli host derived from BL21, infected with T7 phage
Sequence (P21802 22-821): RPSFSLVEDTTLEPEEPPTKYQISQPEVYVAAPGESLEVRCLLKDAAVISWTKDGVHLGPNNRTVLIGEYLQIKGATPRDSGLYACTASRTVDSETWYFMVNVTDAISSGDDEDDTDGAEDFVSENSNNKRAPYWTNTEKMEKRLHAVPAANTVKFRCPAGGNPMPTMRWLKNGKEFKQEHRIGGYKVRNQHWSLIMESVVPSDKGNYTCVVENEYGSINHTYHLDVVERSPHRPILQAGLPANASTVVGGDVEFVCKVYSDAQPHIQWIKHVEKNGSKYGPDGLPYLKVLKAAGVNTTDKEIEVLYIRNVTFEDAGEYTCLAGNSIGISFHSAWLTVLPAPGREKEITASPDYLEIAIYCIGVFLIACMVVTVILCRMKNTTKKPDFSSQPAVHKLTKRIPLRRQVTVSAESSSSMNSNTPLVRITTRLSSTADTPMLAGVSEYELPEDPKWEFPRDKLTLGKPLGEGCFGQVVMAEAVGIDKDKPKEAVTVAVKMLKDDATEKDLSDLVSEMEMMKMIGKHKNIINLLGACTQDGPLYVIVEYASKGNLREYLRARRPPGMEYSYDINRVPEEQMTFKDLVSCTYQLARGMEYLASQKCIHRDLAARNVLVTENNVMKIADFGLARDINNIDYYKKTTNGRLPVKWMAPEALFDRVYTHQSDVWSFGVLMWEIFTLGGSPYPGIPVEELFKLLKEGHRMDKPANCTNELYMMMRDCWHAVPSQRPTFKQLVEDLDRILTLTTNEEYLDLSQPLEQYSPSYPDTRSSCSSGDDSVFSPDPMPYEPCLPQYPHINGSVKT
Assay: Kinase binding assay (Kd), FGFR2
Settings: 11-point 3-fold dilution, qPCR readout
Procedure: Kinase-tagged T7 phage strains were prepared in an E. coli host derived from the BL21 strain. E. coli were grown to log-phase and infected with T7 phage and incubated with shaking at 32° C. until lysis. The lysates were centrifuged and filtered to remove cell debris. […] Test compounds were prepared as 111X stocks in 100% DMSO. Kds were determined using an 11-point 3-fold compound dilution series with three DMSO control points. […] The kinase concentration in the eluates was measured by qPCR. […]
result-type: Kd (nM)

- compound: "C=CC(=O)Nc1ccc2c(ccn2-c2nc(Nc3ccc(N=S(C)(C)=O)cc3)ncc2Cl)c1"
  target-or-test-system: "FGFR2 (Homo sapiens, UniProt P21802)"
  result-type: "Kd"
  unit-symbol: "nM"
  endpoint-value: 37
- compound: "COc1cc(N2CCS(=N)(=O)CC2)ccc1Nc1ncc(Cl)c(-n2ccc3ccccc32)n1"
  target-or-test-system: "FGFR2 (Homo sapiens, UniProt P21802)"
  result-type: "Kd"
  unit-symbol: "nM"
  endpoint-value: 15000
- compound: "CS(C)(=O)=Nc1ccc(Nc2cc(-n3ccc4ccccc43)ncn2)cc1"
  target-or-test-system: "FGFR2 (Homo sapiens, UniProt P21802)"
  result-type: "Kd"
  unit-symbol: "nM"
  endpoint-value: 14000
- compound: "Cc1cnc(Nc2ccc(S(C)(=N)=O)cc2)nc1-c1c(C)[nH]c2ccccc12 (stereo not shown)"
  target-or-test-system: "FGFR2 (Homo sapiens, UniProt P21802)"
  result-type: "Kd"
  unit-symbol: "nM"
  endpoint-value: 43
- compound: "C=CC(=O)Nc1cccc2c1ccn2-c1nc(Nc2ccc(N3CCS(=N)(=O)CC3)cc2)ncc1Cl"
  target-or-test-system: "FGFR2 (Homo sapiens, UniProt P21802)"
  result-type: "Kd"
  unit-symbol: "nM"
  endpoint-value: 62
- compound: "C=CC(=O)Nc1cccc2c1ccn2-c1nc(Nc2ccc(N=S(C)(C)=O)cc2)ncc1Cl"
  target-or-test-system: "FGFR2 (Homo sapiens, UniProt P21802)"
  result-type: "Kd"
  unit-symbol: "nM"
  endpoint-value: 370
- compound: "CN1CCS(=O)(=Nc2ccc(Nc3ncc(Cl)c(-c4c[nH]c5ccccc45)n3)cc2)CC1"
  target-or-test-system: "FGFR2 (Homo sapiens, UniProt P21802)"
  result-type: "Kd"
  unit-symbol: "nM"
  endpoint-value: 6
- compound: "COc1cc(S(C)(=N)=O)ccc1Nc1nccc(-n2ccc3ccccc32)n1 (stereo not shown)"
  target-or-test-system: "FGFR2 (Homo sapiens, UniProt P21802)"
  result-type: "Kd"
  unit-symbol: "nM"
  endpoint-value: 4000
- compound: "Cc1cnc(Nc2ccc(N=S(C)(C)=O)c(Cl)c2)nc1-c1c[nH]c2ccccc12"
  target-or-test-system: "FGFR2 (Homo sapiens, UniProt P21802)"
  result-type: "Kd"
  unit-symbol: "nM"
  endpoint-value: 9
- compound: "C=CC(=O)Nc1ccc2c(ccn2-c2nc(Nc3ccc(S(C)(=N)=O)cc3OC)ncc2C)c1 (stereo not shown)"
  target-or-test-system: "FGFR2 (Homo sapiens, UniProt P21802)"
  result-type: "Kd"
  unit-symbol: "nM"
  endpoint-value: 1600
- compound: "N=S(=O)(c1ccc(Nc2ncc(Cl)c(-c3c[nH]c4ccccc34)n2)cc1)C1CC1 (stereo not shown)"
  target-or-test-system: "FGFR2 (Homo sapiens, UniProt P21802)"
  result-type: "Kd"
  unit-symbol: "nM"
  endpoint-value: 16
- compound: "C=CC(=O)Nc1ccc2c(c1)c(C)cn2-c1nc(Nc2ccc(N=S(C)(C)=O)cc2OCC)ncc1Cl"
  target-or-test-system: "FGFR2 (Homo sapiens, UniProt P21802)"
  result-type: "Kd"
  unit-symbol: "nM"
  endpoint-value: 7900
- compound: "Cc1[nH]c2ccccc2c1-c1nc(Nc2ccc(S(C)(=N)=O)cc2)ncc1Cl (stereo not shown)"
  target-or-test-system: "FGFR2 (Homo sapiens, UniProt P21802)"
  result-type: "Kd"
  unit-symbol: "nM"
  endpoint-value: 34
- compound: "C=CC(=O)Nc1ccc2c(-c3nc(Nc4ccc(N=S(C)(C)=O)cc4)ncc3Cl)cn(C)c2c1"
  target-or-test-system: "FGFR2 (Homo sapiens, UniProt P21802)"
  result-type: "Kd"
  unit-symbol: "nM"
  endpoint-value: 13
- compound: "COc1cc(Nc2ncc(C)c(-c3c[nH]c4c(F)cccc34)n2)ccc1N=S(C)(C)=O"
  target-or-test-system: "FGFR2 (Homo sapiens, UniProt P21802)"
  result-type: "Kd"
  unit-symbol: "nM"
  endpoint-value: 3
- compound: "COc1cc(Nc2ncc(C)c(-c3c[nH]c4ccccc34)n2)ccc1N=S(C)(C)=O"
  target-or-test-system: "FGFR2 (Homo sapiens, UniProt P21802)"
  result-type: "Kd"
  unit-symbol: "nM"
  endpoint-value: 2

The values you see were collected from patent US20230115945A1.
